# SYSTEM TESTED: Thromboxane A2 receptor (Homo sapiens)
# ASSAY INFO: Antagonist activity at human thromboxane A2 receptor beta over-expressed in HEK293 cells assessed as inhibition of U-46619-induced intracellular calcium mobilization mobilization by fluorescence assay
# Format: functional, cell-based
pIC50: −log10 of the molar value.
PROPERTY: pIC50

Take a look at these entries with their results.
>  <COMPOUND>
CCCCCNC(=O)NS(=O)(=O)c1cc(C#N)ccc1Nc1cccc(C)c1

>  <pIC50>
5.63

$$$$
>  <COMPOUND>
CCCCCNC(=O)NS(=O)(=O)c1cc(C#N)ccc1Oc1ccccc1C

>  <pIC50>
5.75

$$$$
>  <COMPOUND>
CCCCCNC(=O)NS(=O)(=O)c1cc(C#N)ccc1Oc1ccc(Br)cc1

>  <pIC50>
5.02

$$$$
>  <COMPOUND>
Cc1ccc(Oc2ccc(C#N)cc2S(=O)(=O)NC(=O)NC(C)(C)C)cc1

>  <pIC50>
6.17

$$$$
>  <COMPOUND>
Cc1ccc(Oc2ccc(C#N)cc2S(=O)(=O)NC(=O)NC(C)C)cc1

>  <pIC50>
5.87

$$$$
>  <COMPOUND>
Cc1ccccc1Nc1ccc(C#N)cc1S(=O)(=O)NC(=O)NC(C)C

>  <pIC50>
4.99

$$$$
>  <COMPOUND>
CC(C)NC(=O)NS(=O)(=O)c1cc(C#N)ccc1Oc1ccc(F)cc1

>  <pIC50>
5.03

$$$$
>  <COMPOUND>
Cc1cccc(Oc2ccc(C#N)cc2S(=O)(=O)NC(=O)NC(C)C)c1

>  <pIC50>
5.77

$$$$

A. CC(C)NC(=O)NS(=O)(=O)c1cc(C#N)ccc1Oc1ccc(Cl)cc1
B. Cc1ccc(Nc2ccc(C#N)cc2S(=O)(=O)NC(=O)NC(C)(C)C)cc1
[in] Please state the entry with greater pIC50 among A and B . Reply with the label of the item you choose.
[out] B

* * *

# SYSTEM TESTED: Thromboxane A2 receptor (Homo sapiens, UniProt P21731)
# Sequence (P21731 whole entry): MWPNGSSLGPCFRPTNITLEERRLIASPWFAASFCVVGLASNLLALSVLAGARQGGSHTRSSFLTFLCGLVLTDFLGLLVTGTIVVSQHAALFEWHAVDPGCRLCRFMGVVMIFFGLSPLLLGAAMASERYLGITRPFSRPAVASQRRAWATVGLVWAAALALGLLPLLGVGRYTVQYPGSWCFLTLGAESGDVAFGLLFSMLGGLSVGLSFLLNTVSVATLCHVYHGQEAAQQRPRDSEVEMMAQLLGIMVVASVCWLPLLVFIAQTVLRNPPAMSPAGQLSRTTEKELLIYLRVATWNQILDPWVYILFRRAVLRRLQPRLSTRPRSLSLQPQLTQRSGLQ
# ASSAY INFO: Antagonist activity at human thromboxane A2 receptor alpha over-expressed in HEK293 cells assessed as inhibition of U-46619-induced intracellular calcium mobilization by fluorescence assay
# Format: functional, cell-based
PROPERTY: IC50 (µM)

>  <COMPOUND>
CC(C)NC(=O)NS(=O)(=O)c1cc(C#N)ccc1Oc1ccc(Br)cc1

>  <ASSAY RESULT>
9.47

$$$$
>  <COMPOUND>
CCCCCNC(=O)NS(=O)(=O)c1cc(C#N)ccc1Oc1ccc(I)cc1

>  <ASSAY RESULT>
9.52

$$$$
>  <COMPOUND>
CCCCCNC(=O)NS(=O)(=O)c1cc(C#N)ccc1Oc1ccc(Br)cc1

>  <ASSAY RESULT>
8.52

$$$$

* * *

# SYSTEM TESTED: Thromboxane A2 receptor (Homo sapiens)
# ASSAY INFO: Antagonist activity at human thromboxane A2 receptor alpha over-expressed in HEK293 cells assessed as inhibition of U-46619-induced intracellular calcium mobilization by fluorescence assay
# Type: functional, cell-based
pIC50: −log10 of the molar value.
PROPERTY: pIC50

Some compounds with recorded pIC50:
>  <COMPOUND>
CCCCCNC(=O)NS(=O)(=O)c1cc(C#N)ccc1Nc1ccc(F)cc1

>  <pIC50>
5.17

$$$$
>  <COMPOUND>
Cc1cccc(Oc2ccc(C#N)cc2S(=O)(=O)NC(=O)NC(C)(C)C)c1

>  <pIC50>
5.98

$$$$
>  <COMPOUND>
Cc1cccc(Oc2ccc(C#N)cc2S(=O)(=O)NC(=O)NC(C)C)c1

>  <pIC50>
5.62

$$$$
>  <COMPOUND>
CCCCCNC(=O)NS(=O)(=O)c1cc(C#N)ccc1Nc1ccccc1C

>  <pIC50>
5.50

$$$$
>  <COMPOUND>
CCCCCNC(=O)NS(=O)(=O)c1cc(C#N)ccc1Oc1ccc(Cl)cc1

>  <pIC50>
5.06

$$$$

a. CC(C)(C)NC(=O)NS(=O)(=O)c1cc(C#N)ccc1Oc1ccc(Br)cc1
b. Cc1ccc(Oc2ccc(C#N)cc2S(=O)(=O)NC(=O)NC(C)C)cc1
c. CC(C)NC(=O)NS(=O)(=O)c1cc(C#N)ccc1Oc1ccc(I)cc1
d. CCCCCNC(=O)NS(=O)(=O)c1cc(C#N)ccc1Oc1ccc(C)cc1
e. Cc1cccc(Nc2ccc(C#N)cc2S(=O)(=O)NC(=O)NC(C)(C)C)c1
[in] // sort entries: pIC50, high to low Reply with the labels, ordered as the question asks.
[out] d, e, b, a, c

I. Cc1ccccc1Oc1ccc(C#N)cc1S(=O)(=O)NC(=O)NC(C)(C)C
II. CCCCCNC(=O)NS(=O)(=O)c1cc(C#N)ccc1Oc1ccc(F)cc1
[in] Returns the identifier with the smallest measured pIC50 among I and II . Your answer should be the label of the entry you select.
[out] II
(II: 5.03, I: 5.43)

* * *

# SYSTEM TESTED: Thromboxane A2 receptor (Homo sapiens, UniProt P21731)
# Sequence (P21731 whole entry): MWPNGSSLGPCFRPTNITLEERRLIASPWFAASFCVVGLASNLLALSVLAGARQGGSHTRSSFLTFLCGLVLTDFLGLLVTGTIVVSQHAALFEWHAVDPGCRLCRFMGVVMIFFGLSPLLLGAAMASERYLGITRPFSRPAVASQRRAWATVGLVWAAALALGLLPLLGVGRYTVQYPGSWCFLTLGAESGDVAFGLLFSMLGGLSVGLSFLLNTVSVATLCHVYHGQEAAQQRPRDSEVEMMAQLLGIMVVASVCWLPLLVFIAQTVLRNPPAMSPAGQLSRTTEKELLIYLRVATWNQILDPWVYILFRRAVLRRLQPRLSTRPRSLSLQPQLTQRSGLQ
# ASSAY INFO: Antagonist activity at human thromboxane A2 receptor alpha over-expressed in HEK293 cells assessed as inhibition of U-46619-induced intracellular calcium mobilization by fluorescence assay
# Format: functional, cell-based
pIC50: −log10 of the molar value.
PROPERTY: pIC50

>  <COMPOUND>
CCCCCNC(=O)NS(=O)(=O)c1cc(C#N)ccc1Oc1cccc(C)c1

>  <SYSTEM TESTED>
Thromboxane A2 receptor (Homo sapiens, UniProt P21731)

>  <PROPERTY>
pIC50

>  <ASSAY RESULT>
5.88

$$$$
>  <COMPOUND>
CC(C)NC(=O)NS(=O)(=O)c1cc(C#N)ccc1Oc1ccc(Cl)cc1

>  <SYSTEM TESTED>
Thromboxane A2 receptor (Homo sapiens, UniProt P21731)

>  <PROPERTY>
pIC50

>  <ASSAY RESULT>
5.02

$$$$
>  <COMPOUND>
Cc1ccc(Nc2ccc(C#N)cc2S(=O)(=O)NC(=O)NC(C)C)cc1

>  <SYSTEM TESTED>
Thromboxane A2 receptor (Homo sapiens, UniProt P21731)

>  <PROPERTY>
pIC50

>  <ASSAY RESULT>
5.39

$$$$
>  <COMPOUND>
Cc1cccc(Nc2ccc(C#N)cc2S(=O)(=O)NC(=O)NC(C)C)c1

>  <SYSTEM TESTED>
Thromboxane A2 receptor (Homo sapiens, UniProt P21731)

>  <PROPERTY>
pIC50

>  <ASSAY RESULT>
5.02

$$$$
>  <COMPOUND>
Cc1ccccc1Oc1ccc(C#N)cc1S(=O)(=O)NC(=O)NC(C)C

>  <SYSTEM TESTED>
Thromboxane A2 receptor (Homo sapiens, UniProt P21731)

>  <PROPERTY>
pIC50

>  <ASSAY RESULT>
5.06

$$$$

A. Cc1ccccc1Nc1ccc(C#N)cc1S(=O)(=O)NC(=O)NC(C)(C)C
B. Cc1ccc(Nc2ccc([N+](=O)[O-])cc2S(=O)(=O)NC(=O)NC(C)(C)C)cc1
[in] I would appreciate it if you could say which entry, A or B , has the lower pIC50 value. The response must carry the label of the picked entry.
[out] A

A. CC(C)(C)NC(=O)NS(=O)(=O)c1cc(C#N)ccc1Nc1ccc(F)cc1
B. Cc1ccc(Oc2ccc(C#N)cc2S(=O)(=O)NC(=O)NC(C)(C)C)cc1
[in] Could you kindly indicate whether A or B has the higher pIC50 value? I would appreciate it if you answered with the label of your choice.
[out] B
